# assayText: Measurement of LogP values by HPLC on reversed phase columns (EEC directive 79/831 Annex V.A8)
# Assay type: physicochemical
Marks after values point to notes of the source that are not given here.
Listed here are molecules together with their documented LogP.

Use the examples below as a reference point.
{"columns": ["molecule", "LogP"],
 "data": [
  ["O=C(NCc1cc(Cl)cc(Cl)c1)c1cc(N(Cc2ccccc2)Cc2ccccc2)ns1", "2.90[a]"],
  ["Nc1nsc(C(=O)N(c2ccc(F)cc2F)C2CC2)c1Cl", "2.39[a]"],
  ["COc1ccc(CNc2nsc(C(=O)NCc3ccc(OC)c(Cl)c3)c2Cl)cc1", "3.68[a]"],
  ["Nc1nsc(C(=O)NCc2ccc(Cl)nc2)c1Cl", "1.31[a]"],
  ["COc1ccc(CNc2nsc(C(=O)NC3Cc4ccccc4C3)c2Cl)cc1", "3.90[a]"],
  ["Nc1nsc(C(=O)NCc2ccc(F)c(F)c2)c1Cl", "1.93[a]"],
  ["Nc1nsc(C(=O)NCC2CCCCC2Cl)c1F (centres unmarked)", "2.16[a]"],
  ["CCC(NC(=O)c1snc(NCc2ccc(OC)cc2)c1Cl)c1cn(CC)nc1C (centres unmarked)", "3.02[a]"],
  ["COc1ccc(CNc2nsc(C(=O)NCc3ccnc(OC)c3)c2Cl)cc1", "2.78[a]"],
  ["CC1CCCC(C)(C)C1CNC(=O)c1snc(N)c1Cl (centres unmarked)", "3.54[a]"]
]}

Lookup result for COc1ccc(CNc2nsc(C(=O)NC(C)c3cccnc3)c2Cl)cc1 (centres unmarked) ; measured LogP: 1.63[a]

Memo: Cc1ccc(C)c(CN(C(=O)c2snc(N)c2Cl)C2CC2)c1 , reported LogP: 3.04[a]

The reported value for O=C(NCc1ccccc1F)c1snc(NCc2ccccc2)c1Cl in terms of LogP is 3.56[a]

Sample COc1ccc(CNc2nsc(C(=O)NCc3ccc(C)n3C)c2Cl)cc1 ; LogP observed: 3.39[a]

The molecule COc1ccc(CNc2nsc(C(=O)NCc3cncn3C)c2Cl)cc1 showed LogP equal to 1.35[a]

Documented LogP of CCC(=O)Nc1nsc(C(=O)NCc2ccc(C#N)cc2)c1Cl : 1.54[a]

Value of LogP reported for the molecule COc1ccc(CNc2nsc(C(=O)N(Cc3cc(F)ccc3F)C3CC3)c2Cl)cc1 is 4.15[a]

Consider COc1ccc(CNc2nsc(C(=O)NCc3cccn3C)c2Cl)cc1 . Its measured LogP is 3.15[a]

Nc1nsc(C(=O)NCC23CCC(CC2)C3)c1Cl yielded LogP of 2.53[a]

Sure, the documented LogP for Cc1cccc(NC(=O)c2snc(N)c2Cl)c1C is 2.27[a]

Measured LogP, Nc1nsc(C(=O)NCc2cccnc2Cl)c1Cl : 1.22[a]

The molecule listed as COc1ccc(CNc2nsc(C(=O)N(Cc3ccc(Cl)cc3Cl)C3CC3)c2Cl)cc1 has a reported LogP of 5.08[a]

Value of LogP reported for the molecule C[C@H](NC(=O)c1snc(NCC(F)(F)F)c1Cl)C1CCCCC1 is 4.11[a]

Lab book: LogP of C#CC1(NC(=O)c2snc(NCc3ccc(OC)cc3)c2Cl)CCCCC1 noted as 3.99[a]

Sure, the documented LogP for Cc1ccc(NC(=O)c2snc(N(Cc3ccccc3)Cc3ccccc3)c2Br)cc1Cl is 6.35[a]

Just so you know, measured LogP for COc1ccc(CNc2nsc(C(=O)NCc3ccc(Oc4ccc(F)cc4)cc3)c2Cl)cc1 came out at 4.44[a]

Quick note, LogP for Nc1nsc(C(=O)NCc2ccc(Cl)cc2)c1-c1ccc(F)cc1 landed at 2.73[a]

Form field LogP, entry Nc1nsc(C(=O)NCc2ccccc2Br)c1Cl : 1.88[a]

response.value for Cc1ccc(C)c(CNC(=O)c2snc(N)c2Cl)c1 (field: LogP) = 2.50[a]

So, C[C@H](NC(=O)c1snc(NC2CC2)c1Cl)C1CCCCC1 ? Its LogP was 3.75[a]

O=C(NCc1ccc(Cl)cc1)c1snc(NCC(F)(F)F)c1Cl has a reported LogP of 3.44[a]

The recorded LogP for COc1ccc(CNc2nsc(C(=O)NCc3cccc(OC(F)(F)F)c3)c2Cl)cc1 is 4.13[a]
